- Test system: Syrian golden hamster
- test_summary: Antihyperlipidemic activity measured by free fatty acid level in golden syrian hamster at 100 mg/kg, po
- Assay type: functional, Mesocricetus auratus
measured_quantity: Activity (µM)

1. OC[C@H]1O[C@@H](O[C@H]2[C@H](O)[C@@H](O)[C@H](O[C@H]3[C@H](O)[C@@H](CO)O[C@]3(O)CO)O[C@@H]2CO)[C@H](O)[C@@H](O)[C@H]1O : 670.62
2. OC[C@H]1O[C@](O)(CO)[C@@H](O[C@@H]2O[C@H](CO)[C@@H](O[C@@H]3O[C@H](CO)[C@@H](O)[C@H](O)[C@H]3O)[C@H](O)[C@H]2O)[C@@H]1O : 726.03
3. OC[C@H]1O[C@](O)(CO)[C@@H](O[C@@H]2OC[C@@H](O)[C@@H](O)[C@H]2O)[C@@H]1O : 924.84
4. OC[C@H]1O[C@](O)(CO)[C@@H](O[C@@H]2OC[C@@H](O)[C@H](O)[C@H]2O)[C@@H]1O : 692.34
5. OC[C@H]1O[C@H](OC[C@H]2O[C@H](O[C@]3(CO)O[C@H](CO)[C@@H](O)[C@@H]3O)[C@H](O)[C@@H](O)[C@@H]2O)[C@H](O)[C@@H](O)[C@H]1O : 540.49
6. C[C@@H]1O[C@@H](O[C@H]2[C@H](O)[C@@H](CO)O[C@]2(O)CO)[C@H](O)[C@H](O)[C@H]1O : 833.12
7. OC[C@H]1O[C@](O)(CO)[C@@H](O[C@H]2OC[C@@H](O)[C@@H](O)[C@@H]2O)[C@@H]1O : 708.69
